Here, each record is paired with measured ATPase inhibition IC50 data.
# target_desc: T1, human CD39 protein (recombinant) (human, UniProt P49961 38-478, limits assumed)
# T1 sequence: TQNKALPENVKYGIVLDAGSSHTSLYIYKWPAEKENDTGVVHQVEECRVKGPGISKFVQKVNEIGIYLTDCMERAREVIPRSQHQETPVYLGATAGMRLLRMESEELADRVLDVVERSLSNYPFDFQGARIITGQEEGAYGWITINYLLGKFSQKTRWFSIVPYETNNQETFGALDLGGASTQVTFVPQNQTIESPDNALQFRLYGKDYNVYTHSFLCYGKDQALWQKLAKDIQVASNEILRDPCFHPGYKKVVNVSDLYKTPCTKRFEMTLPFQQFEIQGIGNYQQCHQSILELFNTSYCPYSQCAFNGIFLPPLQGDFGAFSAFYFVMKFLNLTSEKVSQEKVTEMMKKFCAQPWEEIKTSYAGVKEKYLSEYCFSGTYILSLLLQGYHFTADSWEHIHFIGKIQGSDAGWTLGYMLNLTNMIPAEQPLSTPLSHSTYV
# procedure_summary: cell-based or functional assay
# value in nM; strip the unit string

Some solved cases for reference:
- binder: "HuEM0004-38-11 (antibody, human IgG1, kappa, L234A L235A, V domains shown, humanized mAb638, human IgG1/kappa) VH: EVQLVQSGAEVKKPGASVKVSCKASGYTFTSFWMHWVRQAPGQGLEWMGNINPRNGATKYNEKFRSRVTMTADTSISTAYMELSRLRSDDTAVYYCAREDYDEIYYAMDSWGQGTTVTVSS VL: ENVLTQSPATLSLSPGERATLSCSASSSVIYMYWFQQKPGQSPRVLIYDTSNLASGIPARFSGSGSGTDYTLTISSLEPEDFAVYYCQQWSTYPLTFGQGTKLEIKR"
  numeric_value: 65.3
- binder: "EM0004-38c (antibody, human IgG1, kappa, L234A L235A, V domains shown, chimeric mAb638; also called EM04-38c) VH: QVQLQQPGTELVKPGASVKLSCKASGYTFTSFWMHWVKQRPGQGLEWIGNINPRNGATKYNEKFRSKVTLTADKTSSTAYMHLSSLTSEDSAVYYCAREDYDEIYYAMDSWGQGTSVTVSS VL: QNVLTQSPAIMSASPGEKVTMTCSASSSVIYMYWFQQKPGSSPRVLIYDTSNLASGVPARFSGSGSGTSYSLTISRMEAEDAATYYCQQWSTYPLTFGAGTKLELKR"
  numeric_value: 24.2
- binder: "HuEM0004-38-13 (antibody, human IgG1, kappa, L234A L235A, V domains shown, humanized mAb638, human IgG1/kappa) VH: EVQLVQSGAEVKKPGASVKVSCKASGYTFTSFWMHWVRQAPGQGLEWMGNINPRNGATKYNEKFRSRVTLTADKSISTAYMELSRLRSDDTAVYYCAREDYDEIYYAMDSWGQGTTVTVSS VL: ENVLTQSPATLSLSPGERATLSCSASSSVIYMYWFQQKPGQSPRVLIYDTSNLASGIPARFSGSGSGTDYTLTISSLEPEDFAVYYCQQWSTYPLTFGQGTKLEIKR"
  numeric_value: 36.2
- binder: "HuEM0004-38-17 (antibody, human IgG1, kappa, L234A L235A, V domains shown, humanized mAb638, human IgG1/kappa) VH: EVQLVQSGAEVKKPGASVKVSCKASGYTFTSFWMHWVRQAPGQGLEWMGNINPRNGATKYNEKFRSRVTMTADKSISTAYMELSRLRSDDTAVYYCAREDYDEIYYAMDSWGQGTTVTVSS VL: ENVLTQSPATLSLSPGERATLSCSASSSVIYMYWFQQKPGQSPRVLIYDTSNLASGVPARFSGSGSGTDYTLTISSLEPEDFAVYYCQQWSTYPLTFGQGTKLEIKR"
  numeric_value: 20.4
- binder: "HuEM0004-38-10 (antibody, human IgG1, kappa, L234A L235A, V domains shown, humanized mAb638, human IgG1/kappa) VH: EVQLVQSGAEVKKPGASVKVSCKASGYTFTSFWMHWVRQAPGQGLEWIGNINPRNGATKYNEKFRSKVTLTADKSISTAYMELSRLRSDDTAVYYCAREDYDEIYYAMDSWGQGTTVTVSS VL: ENVLTQSPATLSLSPGERATLSCSASSSVIYMYWFQQKPGQAPRLLIYDTSNLASGIPARFSGSGSGTDYTLTISSLEPEDFAVYYCQQWSTYPLTFGQGTKLEIKR"
  numeric_value: 83.2
- binder: "HuEM0004-38-12 (antibody, human IgG1, kappa, L234A L235A, V domains shown, humanized mAb638, human IgG1/kappa) VH: EVQLVQSGAEVKKPGASVKVSCKASGYTFTSFWMHWVRQAPGQGLEWMGNINPRNGATKYNEKFRSRVTMTADKSISTAYMELSRLRSDDTAVYYCAREDYDEIYYAMDSWGQGTTVTVSS VL: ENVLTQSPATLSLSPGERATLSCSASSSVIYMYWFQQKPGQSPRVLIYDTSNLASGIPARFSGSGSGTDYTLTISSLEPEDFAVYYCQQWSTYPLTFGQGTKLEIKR"
  numeric_value: 46.9
- binder: "HuEM0004-38-9 (antibody, human IgG1, kappa, L234A L235A, V domains shown) VH: EVQLVQSGAEVKKPGASVKVSCKASGYTFTSFWMHWVRQAPGQGLEWIGNINPRNGATKYNEKFRSRVTLTADKSISTAYMELSRLRSDDTAVYYCAREDYDEIYYAMDSWGQGTTVTVSS VL: ENVLTQSPATLSLSPGERATLSCSASSSVIYMYWFQQKPGQAPRLLIYDTSNLASGIPARFSGSGSGTDYTLTISSLEPEDFAVYYCQQWSTYPLTFGQGTKLEIKR"
  numeric_value: 79.6
- binder: "HuEM0004-38-15 (antibody, human IgG1, kappa, L234A L235A, V domains shown, humanized mAb638, human IgG1/kappa) VH: EVQLVQSGAEVKKPGASVKVSCKASGYTFTSFWMHWVRQAPGQGLEWIGNINPRNGATKYNEKFRSKVTLTADKSISTAYMELSRLRSDDTAVYYCAREDYDEIYYAMDSWGQGTTVTVSS VL: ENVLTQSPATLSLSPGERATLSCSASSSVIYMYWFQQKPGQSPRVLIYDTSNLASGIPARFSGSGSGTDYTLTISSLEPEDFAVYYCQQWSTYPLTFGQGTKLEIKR"
  numeric_value: 40.9
- binder: "HuEM0004-38-14 (antibody, human IgG1, kappa, L234A L235A, V domains shown, humanized mAb638, human IgG1/kappa) VH: EVQLVQSGAEVKKPGASVKVSCKASGYTFTSFWMHWVRQAPGQGLEWIGNINPRNGATKYNEKFRSRVTLTADKSISTAYMELSRLRSDDTAVYYCAREDYDEIYYAMDSWGQGTTVTVSS VL: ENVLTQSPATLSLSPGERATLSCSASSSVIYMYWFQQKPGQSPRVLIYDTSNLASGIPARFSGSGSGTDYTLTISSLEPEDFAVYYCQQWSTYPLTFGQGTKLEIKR"
  numeric_value: 36.9
- binder: "HuEM0004-38-18 (antibody, human IgG1, kappa, L234A L235A, V domains shown, humanized mAb638, human IgG1/kappa) VH: EVQLVQSGAEVKKPGASVKVSCKASGYTFTSFWMHWVRQAPGQGLEWMGNINPRNGATKYNEKFRSRVTLTADKSISTAYMELSRLRSDDTAVYYCAREDYDEIYYAMDSWGQGTTVTVSS VL: ENVLTQSPATLSLSPGERATLSCSASSSVIYMYWFQQKPGQSPRVLIYDTSNLASGVPARFSGSGSGTDYTLTISSLEPEDFAVYYCQQWSTYPLTFGQGTKLEIKR"
  numeric_value: 18.9

// next entry
Form field ATPase inhibition IC50, entry HuEM0004-38-19 (antibody, human IgG1, kappa, L234A L235A, V domains shown, humanized mAb638, human IgG1/kappa) VH: EVQLVQSGAEVKKPGASVKVSCKASGYTFTSFWMHWVRQAPGQGLEWIGNINPRNGATKYNEKFRSRVTLTADKSISTAYMELSRLRSDDTAVYYCAREDYDEIYYAMDSWGQGTTVTVSS VL: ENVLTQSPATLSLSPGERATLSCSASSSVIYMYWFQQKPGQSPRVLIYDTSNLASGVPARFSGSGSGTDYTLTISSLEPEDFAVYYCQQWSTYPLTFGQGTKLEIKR : 33.2
